Measured pEC50 values are reported for all entries that follow.
Test system: Ramos
assaySummary: Cytotoxicity against human Ramos cells assessed as reduction in cell viability after 72 hrs by MTS assay
Type: functional, cell-based
Reminder that pEC50 means the negative base-10 logarithm of the concentration expressed in mol/L.

Consider the following illustrative entries.
Nc1ccn([C@@H]2O[C@H](CO)[C@@H](O)C2(F)F)c(=O)n1	10.52
CC(C)CCOC(=O)CC[C@H](NP(=O)(OC[C@H]1O[C@@H](n2ccc(N)nc2=O)C(F)(F)[C@@H]1O)Oc1ccccc1)C(=O)OCCC(C)C (stereo not given in full)	5.92
CC(C)CCOC(=O)[C@H](CC(=O)OCc1ccccc1)NP(=O)(OC[C@H]1O[C@@H](n2ccc(N)nc2=O)C(F)(F)[C@@H]1O)Oc1ccccc1 (stereo not given in full)	6.15

[in] Could you tell me which pEC50 is on file for CC(C)CCOC(=O)C[C@H](NP(=O)(OC[C@H]1O[C@@H](n2cc(/C=C/Br)c(=O)[nH]c2=O)C[C@@H]1O)Oc1ccccc1)C(=O)OCCC(C)C (stereo not given in full) ?
[out] 5.20

Each recorded value in this set is attributed to ChEMBL document CHEMBL3792335.
